- test system: CDK8/Cyclin C (Homo sapiens)
- Sequence (P49336 whole entry): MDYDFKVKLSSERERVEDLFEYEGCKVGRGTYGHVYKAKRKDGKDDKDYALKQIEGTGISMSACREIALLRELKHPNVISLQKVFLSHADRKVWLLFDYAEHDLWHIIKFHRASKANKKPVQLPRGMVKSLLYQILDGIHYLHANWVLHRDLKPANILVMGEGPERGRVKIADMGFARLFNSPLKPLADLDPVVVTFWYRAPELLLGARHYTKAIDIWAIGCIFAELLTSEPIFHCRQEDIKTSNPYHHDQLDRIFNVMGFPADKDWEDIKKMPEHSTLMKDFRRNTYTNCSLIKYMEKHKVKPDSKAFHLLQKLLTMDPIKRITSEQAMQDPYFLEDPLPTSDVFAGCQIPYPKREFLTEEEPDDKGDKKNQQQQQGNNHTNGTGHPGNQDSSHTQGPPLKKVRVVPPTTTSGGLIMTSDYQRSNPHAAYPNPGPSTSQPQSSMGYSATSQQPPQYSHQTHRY
- Sequence (P24863 whole entry, further chain): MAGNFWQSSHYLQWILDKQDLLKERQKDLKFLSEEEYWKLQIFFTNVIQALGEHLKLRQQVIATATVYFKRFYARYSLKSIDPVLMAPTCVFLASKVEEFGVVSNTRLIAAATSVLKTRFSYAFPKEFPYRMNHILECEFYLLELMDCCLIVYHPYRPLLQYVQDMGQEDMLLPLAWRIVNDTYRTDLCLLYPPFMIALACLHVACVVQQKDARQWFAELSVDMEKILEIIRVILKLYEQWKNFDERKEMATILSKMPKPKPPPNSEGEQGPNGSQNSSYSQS
- method: Inhibition of Alexa fluor 647 labeled kinase tracer binding to human CDK8/cyclin C incubated for 1 hr by FRET based LanthaScreen Eu-Kinase binding assay
test readout: IC50 (nM)

Example cases with answers are listed next.
{"smi": "CCOc1ccc(C(=O)Oc2cccnc2)cc1", "IC50 / nM": 377}
{"smi": "CCOc1ccc(C(=O)Oc2cnccc2C2CCN(c3ccccc3)CC2)cc1", "IC50 / nM": 144}

(I) CCOc1ccc(C(=O)Oc2cnccc2-c2cnn(-c3ccccc3)c2)cc1
(II) CCOc1ccc(C(=O)Oc2cnccc2NC(=O)Nc2ccccc2)cc1
Query: Which value of IC50 is smaller, the one for I or the one for II ? Indicate your choice by writing its label.
Result: I
(I: 6.4 nM, II: 355 nM)
